TESTED_TARGET: MMP-9FL (full length Gelatinase B) (Homo sapiens, UniProt P14780)
Sequence (P14780 94-707, species assumed): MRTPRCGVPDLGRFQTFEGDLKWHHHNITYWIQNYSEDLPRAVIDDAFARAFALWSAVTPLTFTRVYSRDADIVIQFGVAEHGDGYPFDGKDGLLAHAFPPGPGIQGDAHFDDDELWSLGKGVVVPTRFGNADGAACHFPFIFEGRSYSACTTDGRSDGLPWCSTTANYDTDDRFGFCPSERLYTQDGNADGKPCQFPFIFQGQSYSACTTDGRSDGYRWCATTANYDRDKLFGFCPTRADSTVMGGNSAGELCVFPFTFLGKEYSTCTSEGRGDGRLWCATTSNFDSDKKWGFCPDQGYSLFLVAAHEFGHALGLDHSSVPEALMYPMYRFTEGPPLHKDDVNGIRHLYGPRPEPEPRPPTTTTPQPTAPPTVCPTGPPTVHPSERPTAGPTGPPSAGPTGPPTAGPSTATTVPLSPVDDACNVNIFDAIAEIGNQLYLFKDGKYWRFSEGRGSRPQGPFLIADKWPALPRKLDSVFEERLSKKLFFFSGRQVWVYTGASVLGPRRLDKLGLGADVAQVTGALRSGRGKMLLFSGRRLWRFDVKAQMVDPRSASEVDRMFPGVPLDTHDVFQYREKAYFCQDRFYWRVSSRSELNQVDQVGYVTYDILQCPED
ASSAY_REMARKS: Thiopeptolide substrate hydrolysis assay, MMP-9FL
Assay type: biochemical
REPORTED_CONDITIONS: HEPES pH 7.0, 22° C., read-out: IC50 (μM) Versus Certain MMPs: MMP-09 FL
Where a name gives a salt, the structure may show the parent alone.
Consider the following compounds; for each one, report its IC50.

Lab note: record IC50 of `Cc1c(=O)n(Cc2ccccc2)c(=O)n2cc(C(=O)NCc3ccccc3)sc12` tested on MMP-9FL (full length Gelatinase B) (Homo sapiens, UniProt P14780).
> 100 µM

Determine reported IC50 for `COC(=O)c1ccc(Cn2c(=O)c(C)c3sc(C(=O)NCc4ccc(F)cc4)cn3c2=O)cc1Cl` ; test system: MMP-9FL (full length Gelatinase B) (Homo sapiens, UniProt P14780).
> 30 µM

Give IC50 for this entry on MMP-9FL (full length Gelatinase B) (Homo sapiens, UniProt P14780): `COC(=O)Nc1cc(Cn2c(=O)c(C)c3sc(C(=O)NCc4ccc(F)cc4)cn3c2=O)on1`
> 30 µM

Report value only: IC50, MMP-9FL (full length Gelatinase B) (Homo sapiens, UniProt P14780), `COC(=O)c1ccc(Cn2c(=O)c(C)c3sc(C(=O)NCc4ccc(F)cc4)cn3c2=O)cc1`
> 100 µM

Fill: IC50 (MMP-9FL (full length Gelatinase B) (Homo sapiens, UniProt P14780)) for this compound `COc1ccc(CNC(=O)c2cn3c(=O)n(Cc4ccccc4)c(=O)c(C)c3s2)cc1F`
> 100 µM

Provide IC50, system MMP-9FL (full length Gelatinase B) (Homo sapiens, UniProt P14780), entry O=c1cc2sc(C(O)CCc3ccccc3)cn2c(=O)n1Cc1ccccc1 (stereo not drawn)
> 100 µM

Report measured IC50 on MMP-9FL (full length Gelatinase B) (Homo sapiens, UniProt P14780); entry: Cc1c(=O)n(Cc2ccc(S(N)(=O)=O)cc2)c(=O)n2cc(C(=O)NCc3ccncc3)sc12 [Example 84, hydrochloride]
> 100 µM

Fill in: IC50 on MMP-9FL (full length Gelatinase B) (Homo sapiens, UniProt P14780), entry `Cc1c(=O)n(Cc2ccccc2)c(=O)n2cc(C(=O)NCc3ccc(Cl)cc3)sc12`
> 100 µM

Please indicate recorded IC50 of `Cc1c(=O)n(Cc2ccccc2)c(=O)n2cc(C(=O)NCc3ccc(OC(F)(F)F)cc3)sc12` measured with MMP-9FL (full length Gelatinase B) (Homo sapiens, UniProt P14780).
> 100 µM

Under MMP-9FL (full length Gelatinase B) (Homo sapiens, UniProt P14780): report IC50 of `O=C(CCc1ccccc1)c1cn2c(=O)n(Cc3ccccc3)c(=O)cc2s1` .
> 100 µM

State the measured IC50 (MMP-9FL (full length Gelatinase B) (Homo sapiens, UniProt P14780)) of `Cc1nc(Cn2c(=O)c(C)c3sc(C(=O)NCc4ccc(F)cc4)cn3c2=O)cs1`
> 30 µM

Provide the reported IC50 (system: MMP-9FL (full length Gelatinase B) (Homo sapiens, UniProt P14780)) for O=C(OCc1ccccc1)C1C[S+]([O-])c2cc(=O)n(Cc3ccccc3)c(=O)n21 (stereo not drawn)
> 100 µM
